Biological target: CCR8 (Homo sapiens, UniProt P51685)
Sequence (P51685 whole entry): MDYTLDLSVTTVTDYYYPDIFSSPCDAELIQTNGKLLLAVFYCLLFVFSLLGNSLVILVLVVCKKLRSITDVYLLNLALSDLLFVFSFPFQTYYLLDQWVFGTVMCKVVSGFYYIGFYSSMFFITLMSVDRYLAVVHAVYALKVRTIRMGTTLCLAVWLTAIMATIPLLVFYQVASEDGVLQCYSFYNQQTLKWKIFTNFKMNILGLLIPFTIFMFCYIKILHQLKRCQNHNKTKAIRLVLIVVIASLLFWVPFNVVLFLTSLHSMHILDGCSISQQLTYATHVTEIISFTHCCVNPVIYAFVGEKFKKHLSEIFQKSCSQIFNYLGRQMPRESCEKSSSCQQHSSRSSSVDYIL
Assay: Figure S2a opioid peptide screen on chemokine receptors
Set-up: dose or concentration left out as unconfirmed
Details: read-out: CCR8 activity, ctrl+ = 100, Figure S2a; replicate 3
Starred links: 1 amine or outer side, 2 acyl side, 3 side chain; linkers in the order of their positions; H or OH if unused. Non-standard residues stand in square brackets, D forms with d. Residues, ends and D or L forms follow the SMILES beside them. X1 = N[C@@H](Cc1ccccc1)CN(CC(=O)[*:2])[*:1]
Would you kindly list activation for each of these molecules?

molecule | activation
C[C@H](NC(=O)CNC(=O)[C@@H](NC(=O)[C@H](Cc1ccccc1)NC(=O)CNC(=O)CNC[C@@H](N)Cc1ccccc1)[C@@H](C)O)C(=O)N[C@@H](CCCNC(=N)N)C(=O)N[C@@H](CCCCN)C(=O)N[C@@H](CO)C(=O)N[C@@H](C)C(=O)N[C@@H](CCCNC(=N)N)C(=O)N[C@@H](CCCCN)C(N)=O [FG Nociceptin 1-13] (H-[X1]GFTGARKSARK-NH2) | 4.53%
CSCC[C@H](NC(=O)[C@H](Cc1ccccc1)NC(=O)CNC(=O)CNC(=O)[C@@H](N)Cc1ccc(O)cc1)C(=O)N[C@@H](CCCNC(=N)N)C(=O)N[C@@H](CCCNC(=N)N)C(=O)N[C@H](C(N)=O)C(C)C | -4%
CC[C@H](C)[C@H](NC(=O)[C@H](CCCNC(=N)N)NC(=O)[C@H](CCCNC(=N)N)NC(=O)[C@H](CC(C)C)NC(=O)[C@H](Cc1ccccc1)NC(=O)CNC(=O)CNC(=O)[C@@H](N)Cc1ccc(O)cc1)C(=O)N[C@@H](CCCNC(=N)N)C(=O)N1CCC[C@H]1C(=O)N[C@@H](CCCCN)C(=O)N[C@@H](CC(C)C)C(=O)N[C@@H](CCCCN)C(=O)N[C@@H](Cc1c[nH]c2ccccc12)C(=O)N[C@@H](CC(=O)O)C(=O)N[C@@H](CC(N)=O)C(=O)N[C@@H](CCC(N)=O)C(=O)O | -0.797%

What does the record list as activation for `C[C@H](NC(=O)CNC(=O)[C@@H](NC(=O)[C@H](Cc1ccccc1)NC(=O)CNC(=O)CNC(=O)[C@@H](N)Cc1ccccc1)[C@@H](C)O)C(=O)N[C@@H](CCCNC(=N)N)C(=O)N[C@@H](CCCCN)C(=O)N[C@@H](CO)C(=O)N[C@@H](C)C(=O)N[C@@H](CCCNC(=N)N)C(=O)N[C@@H](CCCCN)C(N)=O` ? 6.11%

----------
Target: CXCR3B (Homo sapiens, UniProt P49682)
Construct: expressed in transfected cells; host or cells: U87 cells
Sequence (P49682 1-415 isoform P49682-2): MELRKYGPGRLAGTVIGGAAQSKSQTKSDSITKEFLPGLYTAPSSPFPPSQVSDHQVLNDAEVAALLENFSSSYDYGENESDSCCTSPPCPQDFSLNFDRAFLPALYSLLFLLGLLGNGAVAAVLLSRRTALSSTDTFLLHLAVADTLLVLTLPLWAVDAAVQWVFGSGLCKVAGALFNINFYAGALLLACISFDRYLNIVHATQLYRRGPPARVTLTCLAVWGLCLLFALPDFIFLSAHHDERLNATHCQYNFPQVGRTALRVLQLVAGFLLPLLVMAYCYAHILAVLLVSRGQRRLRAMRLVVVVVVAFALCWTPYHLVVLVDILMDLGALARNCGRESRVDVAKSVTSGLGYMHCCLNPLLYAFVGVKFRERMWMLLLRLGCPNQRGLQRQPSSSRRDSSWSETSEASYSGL
Experiment: Figure S2a opioid peptide screen on chemokine receptors
Assay type: cell-based
Parameters: dose or concentration left out as unconfirmed
Settings: replicate 3, read-out: CXCR3B activity, ctrl+ = 100
quantity.kind: activation

What does the record list as activation for CC[C@H](C)[C@H](NC(=O)[C@H](CCCNC(=N)N)NC(=O)[C@H](CCCNC(=N)N)NC(=O)[C@H](CC(C)C)NC(=O)[C@H](Cc1ccccc1)NC(=O)CNC(=O)CNC(=O)[C@@H](N)Cc1ccc(O)cc1)C(=O)N[C@@H](CCCNC(=N)N)C(=O)N1CCC[C@H]1C(=O)N[C@@H](CCCCN)C(=O)N[C@@H](CC(C)C)C(=O)N[C@@H](CCCCN)C(=O)N[C@@H](Cc1c[nH]c2ccccc12)C(=O)N[C@@H](CC(=O)O)C(=O)N[C@@H](CC(N)=O)C(=O)N[C@@H](CCC(N)=O)C(=O)O [Dynorphin A] ? -1.99%
